study_system: SMO-D473H (Homo sapiens, UniProt Q99835, D473H)
Sequence (Q99835 28-787 D473H): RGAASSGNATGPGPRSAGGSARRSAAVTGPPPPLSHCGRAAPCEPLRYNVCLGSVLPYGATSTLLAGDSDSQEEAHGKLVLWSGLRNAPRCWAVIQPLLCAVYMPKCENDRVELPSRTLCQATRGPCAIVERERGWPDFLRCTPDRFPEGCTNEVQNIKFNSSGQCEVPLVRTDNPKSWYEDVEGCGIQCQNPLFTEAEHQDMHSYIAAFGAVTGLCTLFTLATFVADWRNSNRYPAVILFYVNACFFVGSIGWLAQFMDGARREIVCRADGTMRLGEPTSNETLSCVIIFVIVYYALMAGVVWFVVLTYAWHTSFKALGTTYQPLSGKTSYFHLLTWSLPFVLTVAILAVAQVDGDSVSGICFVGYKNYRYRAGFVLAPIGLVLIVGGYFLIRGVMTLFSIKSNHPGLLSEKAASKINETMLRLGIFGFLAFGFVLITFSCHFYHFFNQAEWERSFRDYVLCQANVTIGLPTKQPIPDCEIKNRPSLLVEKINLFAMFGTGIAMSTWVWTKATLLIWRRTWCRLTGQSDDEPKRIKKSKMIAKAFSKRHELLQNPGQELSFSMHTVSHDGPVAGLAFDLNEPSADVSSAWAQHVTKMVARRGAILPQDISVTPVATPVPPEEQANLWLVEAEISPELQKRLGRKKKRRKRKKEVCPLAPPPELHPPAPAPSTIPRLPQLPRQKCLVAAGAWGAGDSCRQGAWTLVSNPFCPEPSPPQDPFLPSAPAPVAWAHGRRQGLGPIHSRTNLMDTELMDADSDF
procedure_text: Gli-luciferase reporter assay in C3H10T½ cells transfected with SMO-D473H
details: SMO-D473H transfected C3H10T½ cells; read-out: IC50, inhibition of Gli-luciferase reporter activity
value_type: IC50 (nM)
Answers are plain numbers, in nM.

### Prompt IC50 lookup needed for C[C@@H]1CN(c2ccc(C(=O)Nc3ccc(Cl)c(NC(=O)c4cccc(Cl)c4)c3)cn2)C[C@H](C)N1 , thanks.
### Response 700

====

procedure_text: Mouse pharmacokinetic study
Assay type: in vivo
details: female, CD-1, mouse; mice, single oral 100 mg kg−1 dose, plasma; read-out: terminal half-life (t1/2) (converted)
value_type: half-life

### Prompt What half-life value was documented for this compound, C[C@@H]1CN(c2ccc(C(=O)Nc3ccc(Cl)c(NC(=O)c4cccc(Cl)c4)c3)cn2)C[C@H](C)N1 ?
### Response ~22 h
